- protocol: pKa of conjugate acid
- Format: physicochemical
- stated-conditions: read-out: pKa of conjugate acid (first)
endpoint-label: pKa
Give your answer as a number; write no unit.

Data request: Recorded pKa of CC(=O)c1c(C)c2cnc(Nc3ccc(N4CCNCC4)cn3)nc2n(C2CCCC2)c1=O , please.
Data returned: 7.3

----------
- protocol: water solubility
- Type: physicochemical
- stated-conditions: thermodynamic from solid, read-out: water solubility
endpoint-label: solubility at 14 h (µg/mL)
Give the quantity in µg/mL, number only.

Data request: Recorded solubility at 14 h of CC(=O)c1c(C)c2cnc(Nc3ccc(N4CCNCC4)cn3)nc2n(C2CCCC2)c1=O , please.
Data returned: 9
